# Protocol summary: in vitro
# Stated conditions: human, hela cells, % viability
Mark TRUE only when viability at 28.5 h, 10 µM stays strictly below 90%. Values equal to the cut-off are FALSE.

INSERT INTO results (compound, assigned_category) VALUES
  ('CC1(C)O[C@@H]2O[C@@H](C(O)CNC(=O)c3ccccc3)[C@@H](O)[C@@H]2O1 (stereo partly shown)', 'TRUE'),
  ('Cc1ccc(S(=O)(=O)N(CC(=O)O)c2ccccc2C)cc1', 'FALSE'),
  ('CCOc1ccc(N(CC(=O)O)S(=O)(=O)c2ccc(SC)cc2)cc1', 'FALSE');

INPUT: Quick check: does O=C(NCCc1ccccc1)[C@@H]1C=CCN1C(=O)c1ccco1 have viability at 28.5 h, 10 µM under 90%?
OUTPUT: FALSE

INPUT: Quick check: viability at 28.5 h, 10 µM of COc1cccc(-c2nnc(NC(=O)c3ccc4c(c3)OCCO4)o2)c1 under 90%?
OUTPUT: FALSE

INPUT: Please determine if COC(Cc1nc2ccccc2s1)C(=O)O (stereo not shown) is below 90% in terms of viability at 28.5 h, 10 µM.
OUTPUT: FALSE
